Biological target: HIV-1 protease (Human immunodeficiency virus type 1 group M subtype B)
Experiment: Fluorogenic assay for screening inhibitors of HIV protease
Settings: pH 4.5, read-out: % Inhib. (0.5 nM)
Answer No if inhibition at 0.0005 µM is under 60%, and Yes if it is 60% or more.

COc1cc(CN2CCN(C[C@@H](O)[C@H](Cc3ccccc3)NC(=O)[C@@H](NC(=O)N(C)Cc3csc(C(C)C)n3)C(C)C)[C@H](C(=O)NC(C)(C)C)C2)ccc1O [Example 14]    Yes
CC(C)CN(C[C@@H](O)[C@H](Cc1ccccc1)NC(=O)[C@@H](NC(=O)N(C)Cc1csc(C(C)C)n1)C(C)C)C(=O)NC(C)(C)C [Example 26]    No
CC(C)c1nc(CN(C)C(=O)N[C@H](C(=O)N[C@@H](Cc2ccccc2)[C@H](O)CN(C(C)C)S(=O)(=O)c2ccc(N)cc2)C(C)C)cs1 [Example 29]    Yes
CC(C)[C@H](NC(=O)N(C)Cc1cncs1)C(=O)N[C@@H](Cc1ccccc1)[C@H](O)CN1CCN(Cc2cncs2)C[C@H]1C(=O)NC(C)(C)C [Example 23]    No
CC(C)c1nc(CN(C)C(=O)N[C@H](C(=O)N[C@@H](Cc2ccccc2)[C@H](O)CN2CC[C@@H](OCc3cncs3)C[C@H]2C(=O)NC(C)(C)C)C(C)C)cs1 [Example 32]    Yes

In the following, a different compound is considered.
Determine whether measured inhibition at 0.0005 µM meets or exceeds 60% for CC(C)c1nc(CN(C)C(=O)N[C@H](C(=O)N[C@@H](Cc2ccccc2)[C@H](O)CN2CCN(Cc3ccccc3)C[C@H]2C(=O)NC(C)(C)C)C(C)C)cs1 [Example 13]
Yes

====

Molecular target: HIV-1 protease (Human immunodeficiency virus type 1 group M subtype B, UniProt P04585)
Assay: Fluorogenic assay for screening inhibitors of HIV protease
Details: compound concentration 0.5 nM; fluorogenic substrate 1.3 μM, pH 4.5, 30° C.
Answer 0 (no) if % Inhib. (0.5 nM) is under 60%, and 1 (yes) if it is 60% or more.

Study these solved cases before continuing.
Cc1nc(COC(=O)N[C@H](C(=O)N[C@@H](Cc2ccccc2)[C@H](O)CN2CCN(Cc3ccc4c(c3)OCO4)C[C@H]2C(=O)NC(C)(C)C)C(C)C)cs1 [Example 15]    0 (no)
CC(C)c1ncc(COC(=O)N[C@H](C(=O)N[C@@H](Cc2ccccc2)[C@H](O)CN2C[C@H]3CCCC[C@H]3C[C@H]2C(=O)NC(C)(C)C)C(C)C)s1 [Example 30]    0 (no)
CC(C)c1nc(COC(=O)N[C@H](C(=O)N[C@@H](Cc2ccccc2)[C@H](O)CN2CCN(Cc3cccc(O)c3)C[C@H]2C(=O)NC(C)(C)C)C(C)C)cs1 [Example 5]    1 (yes)
COc1ccc(CN2CCN(C[C@@H](O)[C@H](Cc3ccccc3)NC(=O)[C@@H](NC(=O)OCc3csc(C)n3)C(C)C)[C@H](C(=O)NC(C)(C)C)C2)cc1OC [Example 16]    0 (no)
CCc1ncc(COC(=O)N[C@H](C(=O)N[C@@H](Cc2ccccc2)[C@H](O)CN2CCN(Cc3ccc(OC)c(OC)c3)C[C@H]2C(=O)NC(C)(C)C)C(C)C)s1 [Example 20]    0 (no)
CCc1nc(COC(=O)N[C@H](C(=O)N[C@@H](Cc2ccccc2)[C@H](O)CN2CCN(Cc3ccc(OC)c(OC)c3)C[C@H]2C(=O)NC(C)(C)C)C(C)C)cs1 [Example 18]    1 (yes)

Determine whether measured % Inhib. (0.5 nM) meets or exceeds 60% for COc1ccc(CN2CCN(C[C@@H](O)[C@H](Cc3ccccc3)NC(=O)[C@@H](NC(=O)OCc3cnc(C(C)C)s3)C(C)C)[C@H](C(=O)NC(C)(C)C)C2)cc1OC [Example 19]
0 (no)

Determine whether measured % Inhib. (0.5 nM) meets or exceeds 60% for CC(C)c1ncc(CN(C)C(=O)N[C@H](C(=O)N[C@@H](Cc2ccccc2)[C@H](O)CN2C[C@H]3CCCC[C@H]3C[C@H]2C(=O)NC(C)(C)C)C(C)C)s1 [Example 31]
0 (no)

Determine whether measured % Inhib. (0.5 nM) meets or exceeds 60% for CC(C)c1nc(COC(=O)N[C@H](C(=O)N[C@@H](Cc2ccccc2)[C@H](O)CN2CCN(Cc3ccncc3)C[C@H]2C(=O)NC(C)(C)C)C(C)C)cs1 [Example 7]
1 (yes)

Determine whether measured % Inhib. (0.5 nM) meets or exceeds 60% for CC(C)[C@H](NC(=O)OCc1cncs1)C(=O)N[C@@H](Cc1ccccc1)[C@H](O)CN1CCN(Cc2cncs2)C[C@H]1C(=O)NC(C)(C)C [Example 25]
0 (no)

====

Exercise: for every item that follows, state its recorded CC50.
Test: Cytotoxicity in MT4 cells (LC50, 50% of the cells remain viable)
Format: cell-based
Settings: human
Answers are plain numbers, in µM.

COc1cc(CN2CCN(C[C@@H](O)[C@H](Cc3ccccc3)NC(=O)[C@@H](NC(=O)N(C)Cc3csc(C(C)C)n3)C(C)C)[C@H](C(=O)NC(C)(C)C)C2)ccc1O    22.7

Attention now turns to another entry.
What value of measured CC50 is listed for CC(C)c1nc(CN(C)C(=O)N[C@H](C(=O)N[C@@H](Cc2ccccc2)[C@H](O)CN2CC[C@@H](OCc3cncs3)C[C@H]2C(=O)NC(C)(C)C)C(C)C)cs1 ?
64.1

====

Experiment: Cytotoxicity in MT4 cells (LC50, 50% of the cells remain viable)
Format: cell-based
Conditions: human
From the text: The IC50 is the concentration of compound that gives 50% inhibition of the cytopathic effect of HIV. The LC50 is the concentration of compound at which 50% of the cells remain viable.
OBSERVED_PROPERTY: CC50 (µM)
One number for each entry, in µM.

These solved cases illustrate the format of a correct answer.
CC(C)c1nc(CN(C)C(=O)N[C@H](C(=O)N[C@@H](Cc2ccccc2)[C@H](O)CN2CCN(Cc3cncs3)C[C@H]2C(=O)NC(C)(C)C)C(C)C)cs1    70.3
CC(C)c1nc(CN(C)C(=O)N[C@H](C(=O)N[C@@H](Cc2ccccc2)[C@H](O)CN2CCN(Cc3ccccc3)C[C@H]2C(=O)NC(C)(C)C)C(C)C)cs1    60.4

What value of measured CC50 is listed for CC(C)c1nc(CN(C)C(=O)N[C@H](C(=O)N[C@@H](Cc2ccccc2)[C@H](O)CN(C(C)C)S(=O)(=O)c2ccc(N)cc2)C(C)C)cs1 ?
31.2

====

Test system: MT4 cells
Test: Cytotoxicity in MT4 cells (LC50, 50% of the cells remain viable)
Type: cell-based
Conditions: MT4 cells; concentration at which 50% of the cells remain viable
Exercise: for every item that follows, state its recorded CC50.
Answers are plain numbers, in µM.

COc1ccc(CN2CCN(C[C@@H](O)[C@H](Cc3ccccc3)NC(=O)[C@@H](NC(=O)OCc3csc(C)n3)C(C)C)[C@H](C(=O)NC(C)(C)C)C2)cc1OC    61.7
CC(C)c1nc(COC(=O)N[C@H](C(=O)N[C@@H](Cc2ccccc2)[C@H](O)CN2CCN(Cc3ccncc3)C[C@H]2C(=O)NC(C)(C)C)C(C)C)cs1    55.2

Hi, could you look up CC50 for each item in my list?
1. COc1ccc(CN2CCN(C[C@@H](O)[C@H](Cc3ccccc3)NC(=O)[C@@H](NC(=O)OCc3cnc(C)s3)C(C)C)[C@H](C(=O)NC(C)(C)C)C2)cc1OC
2. CC(C)c1ncc(CN(C)C(=O)N[C@H](C(=O)N[C@@H](Cc2ccccc2)[C@H](O)CN2C[C@H]3CCCC[C@H]3C[C@H]2C(=O)NC(C)(C)C)C(C)C)s1

1: 53.1; 2: 17.2

Hi, could you look up CC50 for each item in my list?
1. CC(C)c1ncc(COC(=O)N[C@H](C(=O)N[C@@H](Cc2ccccc2)[C@H](O)CN2C[C@H]3CCCC[C@H]3C[C@H]2C(=O)NC(C)(C)C)C(C)C)s1
2. CC(C)c1nc(COC(=O)N[C@H](C(=O)N[C@@H](Cc2ccccc2)[C@H](O)CN2CCN(Cc3cccnc3)C[C@H]2C(=O)NC(C)(C)C)C(C)C)cs1
3. COc1ccc(CN2CCN(C[C@@H](O)[C@H](Cc3ccccc3)NC(=O)[C@@H](NC(=O)OCc3cnc(C(C)C)s3)C(C)C)[C@H](C(=O)NC(C)(C)C)C2)cc1OC

1: 17.9; 2: 58.6; 3: 20.7

Hi, could you look up CC50 for each item in my list?
1. CC(C)c1nc(COC(=O)N[C@H](C(=O)N[C@@H](Cc2ccccc2)[C@H](O)CN2CCN(Cc3ccccc3)C[C@H]2C(=O)NC(C)(C)C)C(C)C)cs1
2. CC(C)c1nc(COC(=O)N[C@H](C(=O)N[C@@H](Cc2ccccc2)[C@H](O)CN2CCN(Cc3ccc4ccccc4n3)C[C@H]2C(=O)NC(C)(C)C)C(C)C)cs1
3. CC(C)c1nc(COC(=O)N[C@H](C(=O)N[C@@H](Cc2ccccc2)[C@H](O)CN2CCN(Cc3cccc(O)c3)C[C@H]2C(=O)NC(C)(C)C)C(C)C)cs1
4. COc1ccc(CN2CCN(C[C@@H](O)[C@H](Cc3ccccc3)NC(=O)[C@@H](NC(=O)OCc3csc(C(C)C)n3)C(C)C)[C@H](C(=O)NC(C)(C)C)C2)cc1OC

47.1
18.2
16.7
18.3
